PROTOCOL_DESCRIPTION: The drug is tested on Eubacterium biforme strain: DSM3989 for biotransformation. The drug concentrations were measured before and after a 12-h incubation by liquid-chromatography-coupled mass spectrometry (LC–MS)
RUN_PARAMETERS: holdemanella biformis, 2 µM
ASSAY_ENDPOINT: Bacterial Biotransformation

compound="O=P1(N(CCCl)CCCl)NCCCO1 (stereo not given) [CYCLOPHOSPHAMIDE ANHYDROUS]" result="Compound metabolized"
compound="CC(C)(C(=O)O)c1ccc(C(O)CCCN2CCC(C(O)(c3ccccc3)c3ccccc3)CC2)cc1 (stereo not given) [FEXOFENADINE]" result="Compound NOT metabolized"
compound="CNCC[C@H](Oc1cccc2ccccc12)c1cccs1 [DULOXETINE]" result="Compound NOT metabolized"
compound="CN(C)CCC=C1c2ccccc2C=Cc2ccccc21 [CYCLOBENZAPRINE]" result="Compound NOT metabolized"
compound="CN1C(C(=O)Nc2ccccn2)=C(O)c2sccc2S1(=O)=O [TENOXICAM]" result="Compound NOT metabolized"
compound="CN1CCN(C2=Nc3cc(Cl)ccc3Nc3ccccc32)CC1 [CLOZAPINE]" result="Compound NOT metabolized"
compound="C#C[C@]1(OC(C)=O)CC[C@H]2[C@@H]3CCC4=C/C(=N/O)CC[C@@H]4[C@H]3CC[C@@]21CC [NORGESTIMATE]" result="Compound metabolized"
compound="COc1ccc(CCN(C)CCCC(C#N)(c2ccc(OC)c(OC)c2)C(C)C)cc1OC (stereo not given)" result="Compound NOT metabolized"
compound="Nc1nc2ccc(OC(F)(F)F)cc2s1 [RILUZOLE]" result="Compound NOT metabolized"
compound="COC(=O)[C@H](c1ccccc1Cl)N1CCc2sccc2C1.O=S(=O)(O)O [CLOPIDOGREL BISULFATE]" result="Compound NOT metabolized"
compound="COC(=O)Nc1nc2ccc(C(=O)c3ccccc3)cc2[nH]1 [MEBENDAZOLE]" result="Compound NOT metabolized"
compound="c1ccc([C@H]2CN3CCSC3=N2)cc1 [LEVAMISOLE]" result="Compound NOT metabolized"
compound="OC(CCN1CCCCC1)(c1ccccc1)C1CCCCC1 (stereo not given) [TRIHEXYPHENIDYL]" result="Compound NOT metabolized"
compound="O=C(CCCN1CCC(O)(c2ccc(Cl)cc2)CC1)c1ccc(F)cc1 [HALOPERIDOL]" result="Compound NOT metabolized"
compound="N#Cc1ccc2[nH]cc(CCCCN3CCN(c4ccc5oc(C(N)=O)cc5c4)CC3)c2c1 [VILAZODONE]" result="Compound NOT metabolized"
compound="Cc1ccc(NC(=O)c2ccc(CN3CCN(C)CC3)cc2)cc1Nc1nccc(-c2cccnc2)n1 [IMATINIB]" result="Compound NOT metabolized"
compound="OCCOCCN1CCN(C2=Nc3ccccc3Sc3ccccc32)CC1 [QUETIAPINE]" result="Compound NOT metabolized"
compound="O=C(O)COCCN1CCN(C(c2ccccc2)c2ccc(Cl)cc2)CC1 (stereo not given) [CETIRIZINE]" result="Compound metabolized"
compound="Clc1cccc(Cl)c1N=C1NCCN1 [CLONIDINE]" result="Compound NOT metabolized"
compound="Cc1nc(-c2ccc(OCC(C)C)c(C#N)c2)sc1C(=O)O [FEBUXOSTAT]" result="Compound NOT metabolized"

* * *

PROTOCOL_DESCRIPTION: The drug is tested on Clostridium scindens strain: ATCC35704 for biotransformation. The drug concentrations were measured before and after a 12-h incubation by liquid-chromatography-coupled mass spectrometry (LC–MS)
RUN_PARAMETERS: 2 µM
ASSAY_ENDPOINT: Bacterial Biotransformation

compound="CC(Oc1c(Cl)cccc1Cl)C1=NCCN1 (centres undefined)" result="Compound metabolized"
compound=Clc1ccc(Cn2c(CN3CCCC3)nc3ccccc32)cc1 result="Compound NOT metabolized"
compound="CN(CCOc1ccc(CC2SC(=O)NC2=O)cc1)c1ccccn1.O=C(O)/C=C\\C(=O)O (centres undefined) [ROSIGLITAZONE MALEATE]" result="Compound NOT metabolized"
compound="OC(CCN1CCCCC1)(c1ccccc1)C1CCCCC1 (centres undefined)" result="Compound NOT metabolized"
compound=COC(=O)Nc1nc2ccc(C(=O)c3ccccc3)cc2[nH]1 result="Compound NOT metabolized"
compound=CN(C)CCc1c[nH]c2ccc(CS(=O)(=O)N3CCCC3)cc12 result="Compound NOT metabolized"
compound=Cc1cc2c(s1)Nc1ccccc1N=C2N1CCN(C)CC1 result="Compound NOT metabolized"
compound=CCc1oc2ccccc2c1C(=O)c1cc(Br)c(O)c(Br)c1 result="Compound NOT metabolized"
compound="COc1ccnc(C[S+]([O-])c2nc3ccc(OC(F)F)cc3[nH]2)c1OC (centres undefined)" result="Compound metabolized"
